- target.under.test: Melanocortin receptor 4 (Mus musculus)
- Sequence (P56450 whole entry): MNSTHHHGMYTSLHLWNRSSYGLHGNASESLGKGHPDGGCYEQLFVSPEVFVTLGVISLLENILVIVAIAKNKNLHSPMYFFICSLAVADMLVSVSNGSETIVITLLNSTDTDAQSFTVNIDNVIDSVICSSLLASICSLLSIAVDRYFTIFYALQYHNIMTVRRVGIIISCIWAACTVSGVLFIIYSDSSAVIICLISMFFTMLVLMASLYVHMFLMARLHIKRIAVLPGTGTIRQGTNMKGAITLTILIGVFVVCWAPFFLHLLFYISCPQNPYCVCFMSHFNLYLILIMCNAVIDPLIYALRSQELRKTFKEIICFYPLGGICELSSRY
- test.description: Agonist activity at mouse MC4R expressed in HEK293 cells
Numbered stars: 1 amine (or outer) side, 2 acyl side, 3 side chain; on linkers, the order of the positions; unused ones are H or OH. Bridge positions count the residues as written; N and C are the ends. Square brackets hold non-standard residues; d marks the D form. Peptide text beside a SMILES is read from it. NGly(3-aminopropyl) = O=C(CN(CCCN[*:3])[*:1])[*:2]; N(2-Aminoethyl)Gly = O=C(CN(CCN[*:3])[*:1])[*:2]; Adipoyl = O=C(CCCCC(=O)[*:2])[*:1]; Suc = O=C(CCC(=O)[*:2])[*:1]
Give pEC50 for every item shown.
To interpret pEC50, take it as minus log10 of a concentration measured in moles per litre.

State, in one line, measured pEC50 of N=C(N)NCCC[C@@H]1NC(=O)[C@@H](Cc2ccccc2)NC(=O)[C@H](Cc2ccccc2)NC(=O)CCC(=O)NCCCN(CC(N)=O)C(=O)[C@H](Cc2c[nH]c3ccccc23)NC1=O (F[dF]RW[NGly(3-aminopropyl)]-NH2; linker N-5 via Suc)
8.40

State, in one line, measured pEC50 of N=C(N)NCCC[C@@H]1NC(=O)[C@@H](Cc2ccccc2)NC(=O)[C@H](Cc2ccccc2)NC(=O)CCC(=O)NCCN(CC(N)=O)C(=O)[C@H](Cc2c[nH]c3ccccc23)NC1=O (F[dF]RW[N(2-Aminoethyl)Gly]-NH2; linker N-5 via Suc)
8.40

State, in one line, measured pEC50 of "N=C(N)NCCC[C@@H]1NC(=O)[C@@H](Cc2ccccc2)NC(=O)[C@H](Cc2ccccc2)NC(=O)c2ccccc2C(=O)NCCN(CC(N)=O)C(=O)[C@H](Cc2c[nH]c3ccccc23)NC1=O"
6.82

State, in one line, measured pEC50 of "N=C(N)NCCC[C@@H]1NC(=O)[C@@H](Cc2ccccc2)NC(=O)[C@H](Cc2ccccc2)NC(=O)CCCC(=O)NCCN(CC(N)=O)C(=O)[C@H](Cc2c[nH]c3ccccc23)NC1=O"
7.74

State, in one line, measured pEC50 of N=C(N)NCCC[C@@H]1NC(=O)[C@@H](Cc2ccccc2)NC(=O)[C@H](Cc2ccccc2)NC(=O)CCCCC(=O)NCCCN(CC(N)=O)C(=O)[C@H](Cc2c[nH]c3ccccc23)NC1=O (F[dF]RW[NGly(3-aminopropyl)]-NH2; linker N-5 via Adipoyl)
8.30

Values from ChEMBL document CHEMBL1143862
